TESTED_SYSTEM: Hepatocyte growth factor receptor (Homo sapiens, UniProt P08581)
Sequence (P08581 whole entry): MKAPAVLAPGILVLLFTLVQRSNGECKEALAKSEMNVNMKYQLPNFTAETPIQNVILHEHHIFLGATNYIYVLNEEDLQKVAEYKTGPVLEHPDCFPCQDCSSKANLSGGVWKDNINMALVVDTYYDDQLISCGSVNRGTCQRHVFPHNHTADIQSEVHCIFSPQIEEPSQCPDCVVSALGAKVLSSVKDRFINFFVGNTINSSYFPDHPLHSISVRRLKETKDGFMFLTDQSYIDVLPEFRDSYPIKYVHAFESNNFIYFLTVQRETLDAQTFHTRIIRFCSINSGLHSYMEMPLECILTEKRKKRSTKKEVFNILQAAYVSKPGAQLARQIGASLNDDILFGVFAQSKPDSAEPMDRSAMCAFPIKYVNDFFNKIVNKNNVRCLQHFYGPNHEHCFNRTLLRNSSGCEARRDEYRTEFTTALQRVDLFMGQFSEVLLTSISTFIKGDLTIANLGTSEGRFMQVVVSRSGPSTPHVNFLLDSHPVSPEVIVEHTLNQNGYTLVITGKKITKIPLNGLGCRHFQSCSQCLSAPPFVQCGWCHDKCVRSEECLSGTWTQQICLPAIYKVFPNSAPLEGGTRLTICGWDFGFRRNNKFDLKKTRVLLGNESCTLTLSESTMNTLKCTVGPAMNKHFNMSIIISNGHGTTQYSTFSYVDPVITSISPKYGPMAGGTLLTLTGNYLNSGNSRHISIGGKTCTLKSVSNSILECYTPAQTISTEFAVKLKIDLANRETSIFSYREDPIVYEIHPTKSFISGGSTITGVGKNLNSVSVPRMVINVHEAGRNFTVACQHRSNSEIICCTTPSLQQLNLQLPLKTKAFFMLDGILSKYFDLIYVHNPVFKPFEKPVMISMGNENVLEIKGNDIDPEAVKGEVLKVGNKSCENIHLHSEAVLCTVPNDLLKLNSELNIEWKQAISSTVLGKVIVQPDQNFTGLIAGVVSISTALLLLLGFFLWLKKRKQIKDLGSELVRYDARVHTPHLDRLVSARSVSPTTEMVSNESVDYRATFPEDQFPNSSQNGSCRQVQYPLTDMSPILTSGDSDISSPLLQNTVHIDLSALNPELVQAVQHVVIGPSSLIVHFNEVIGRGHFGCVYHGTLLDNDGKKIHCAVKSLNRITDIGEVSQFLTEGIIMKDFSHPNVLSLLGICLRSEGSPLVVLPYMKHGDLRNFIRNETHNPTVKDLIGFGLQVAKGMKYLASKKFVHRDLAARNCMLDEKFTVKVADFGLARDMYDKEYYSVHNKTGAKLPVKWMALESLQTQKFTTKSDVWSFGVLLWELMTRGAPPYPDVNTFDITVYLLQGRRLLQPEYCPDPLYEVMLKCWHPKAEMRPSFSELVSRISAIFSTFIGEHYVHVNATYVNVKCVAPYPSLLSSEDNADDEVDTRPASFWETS
OBSERVATION_TYPE: pIC50
Convention used: pIC50 is expressed as -log10 of the molar concentration.

O=C(Nc1ccc(Oc2ncnc3scc(-c4ccccc4)c23)c(F)c1)c1cccn(-c2ccc(F)cc2)c1=O	7.45
Cc1ccc(-c2csc3ncnc(Oc4ccc(NC(=O)c5cccn(-c6ccc(F)cc6)c5=O)cc4F)c23)s1	7.38

Entry O=C(Nc1ccc(Oc2ncnc3scc(-c4ccc(F)cc4)c23)c(F)c1)c1cccn(-c2ccc(F)cc2)c1=O , system Hepatocyte growth factor receptor (Homo sapiens, UniProt P08581): what pIC50 was measured?
7.17

====

TESTED_SYSTEM: Hepatocyte growth factor receptor (Homo sapiens, UniProt P08581)
PROCEDURE_DETAILS: Inhibition of c-Met at 10 uM after 60 mins by ELISA
# binarize inhibition: threshold 20% inclusive, high side class 1, low side class 0

Cc1nc(Oc2ccc(NC(=O)c3cccn(-c4ccc(F)cc4)c3=O)cc2F)c2c(-c3cccs3)coc2n1	class 1
O=C(Nc1ccc(Oc2ncnc3scc(-c4ccc(C(F)(F)F)cc4)c23)c(F)c1)c1cccn(-c2ccc(F)cc2)c1=O	class 1
COc1nc(Oc2ccc(NC(=O)c3cccn(-c4ccc(F)cc4)c3=O)cc2F)c2c(-c3ccccc3)coc2n1	class 1
O=C(Nc1ccc(Oc2ncnc3sc4c(c23)CCC4)c(F)c1)c1cccn(-c2ccc(F)cc2)c1=O	class 0

Threshold query (inhibition >= 20%) on CNc1nc(Oc2ccc(NC(=O)c3cccn(-c4ccc(F)cc4)c3=O)cc2F)c2c(-c3ccccc3)coc2n1
class 1

Threshold query (inhibition >= 20%) on O=C(Nc1ccc(Oc2ncnc3sccc23)c(F)c1)c1cccn(-c2ccc(F)cc2)c1=O
class 0

Threshold query (inhibition >= 20%) on O=C(Nc1ccc(Oc2ncnc3occ(-c4cccs4)c23)c(F)c1)c1cccn(-c2ccc(F)cc2)c1=O
class 1

Threshold query (inhibition >= 20%) on COc1ccc(-c2csc3ncnc(Oc4ccc(NC(=O)c5cccn(-c6ccc(F)cc6)c5=O)cc4F)c23)cc1
class 1

====

PROCEDURE_DETAILS: Oral bioavailability in mouse at 20 mg/kg
Format: ADME, organism-based
CONDITIONS: in vivo
OBSERVATION_TYPE: bioavailability (%)
Report only the number, with the unit % understood.

What value of measured bioavailability is listed for O=C(Nc1ccc(Oc2ncnc3scc(-c4ccccc4)c23)c(F)c1)c1cccn(-c2ccc(F)cc2)c1=O ?
5

====

TESTED_SYSTEM: Receptor tyrosine-protein kinase erbB-2 (Homo sapiens)
Sequence (P04626 whole entry): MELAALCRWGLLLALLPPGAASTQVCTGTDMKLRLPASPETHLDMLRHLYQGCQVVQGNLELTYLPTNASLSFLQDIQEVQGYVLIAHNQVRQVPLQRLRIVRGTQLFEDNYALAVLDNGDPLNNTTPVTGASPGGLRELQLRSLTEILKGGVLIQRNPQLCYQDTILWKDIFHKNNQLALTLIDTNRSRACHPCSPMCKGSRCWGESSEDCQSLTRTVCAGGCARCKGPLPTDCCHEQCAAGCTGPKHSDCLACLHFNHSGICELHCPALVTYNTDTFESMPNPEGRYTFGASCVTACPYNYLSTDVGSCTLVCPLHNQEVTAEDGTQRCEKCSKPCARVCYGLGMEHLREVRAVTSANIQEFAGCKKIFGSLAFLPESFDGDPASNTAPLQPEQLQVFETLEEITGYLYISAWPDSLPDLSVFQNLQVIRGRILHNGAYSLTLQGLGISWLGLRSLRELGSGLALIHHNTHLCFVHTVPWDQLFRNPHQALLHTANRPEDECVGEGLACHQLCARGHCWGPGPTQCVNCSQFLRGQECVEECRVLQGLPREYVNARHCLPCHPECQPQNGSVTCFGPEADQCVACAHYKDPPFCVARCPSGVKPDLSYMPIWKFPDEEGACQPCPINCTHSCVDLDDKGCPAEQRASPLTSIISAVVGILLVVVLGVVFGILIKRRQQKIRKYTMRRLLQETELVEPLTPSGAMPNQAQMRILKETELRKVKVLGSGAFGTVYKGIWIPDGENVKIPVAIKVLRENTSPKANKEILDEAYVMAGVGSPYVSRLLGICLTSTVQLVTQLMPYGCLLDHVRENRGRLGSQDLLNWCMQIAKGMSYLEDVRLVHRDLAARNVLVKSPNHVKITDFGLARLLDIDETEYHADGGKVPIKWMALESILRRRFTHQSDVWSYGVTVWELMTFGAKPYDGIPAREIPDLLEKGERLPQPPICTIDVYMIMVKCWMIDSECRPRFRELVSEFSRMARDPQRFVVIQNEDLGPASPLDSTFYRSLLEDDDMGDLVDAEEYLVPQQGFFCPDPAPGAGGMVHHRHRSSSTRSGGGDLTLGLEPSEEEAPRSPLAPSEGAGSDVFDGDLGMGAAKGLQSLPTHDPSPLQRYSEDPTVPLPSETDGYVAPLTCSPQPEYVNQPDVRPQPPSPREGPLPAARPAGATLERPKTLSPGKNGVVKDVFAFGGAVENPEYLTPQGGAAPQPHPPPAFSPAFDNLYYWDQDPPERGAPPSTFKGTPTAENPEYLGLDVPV
OBSERVATION_TYPE: IC50

Entry O=C(Nc1ccc(Oc2ncnc3scc(-c4ccccc4)c23)c(F)c1)c1cccn(-c2ccc(F)cc2)c1=O , system Receptor tyrosine-protein kinase erbB-2 (Homo sapiens): what IC50 was measured?
> 10 µM

====

PROCEDURE_DETAILS: Clearance in mouse at 10 mg/kg, iv
Assay type: ADME, organism-based
Design: dose 10 mg/kg, route intravenous
CONDITIONS: in vivo
OBSERVATION_TYPE: clearance (mL/min/kg)
Report only the number, with the unit mL/min/kg understood.

What value of measured clearance is listed for O=C(Nc1ccc(Oc2ncnc3scc(-c4ccccc4)c23)c(F)c1)c1cccn(-c2ccc(F)cc2)c1=O ?
47.2

====

The next entries give measured pIC50 for Hepatocyte growth factor receptor (Homo sapiens).
pIC50: −log10 of the molar value.

Known results for compounds:
CS(=O)(=O)c1nc(Oc2ccc(NC(=O)c3cccn(-c4ccc(F)cc4)c3=O)cc2F)c2c(-c3ccccc3)coc2n1	< 5.00
[N-]=[N+]=Nc1nc(Oc2ccc(NC(=O)c3cccn(-c4ccc(F)cc4)c3=O)cc2F)c2c(-c3ccccc3)coc2n1	< 5.00
Cc1nc(Oc2ccc(NC(=O)c3cccn(-c4ccc(F)cc4)c3=O)cc2F)c2c3c(sc2n1)CCCC3	< 5.00

What value of measured pIC50 is listed for O=C(Nc1ccc(Oc2ncnc3sccc23)c(F)c1)c1cccn(-c2ccc(F)cc2)c1=O ?
< 5.00

====

# inhibition at 10 µM listing for each entry below
Test system: BaF3
PROCEDURE_DETAILS: Antiproliferative activity against […] BAF3 cells expressing TPR-Met assessed as inhibition of cell growth at 10 uM
Assay type: functional
CONDITIONS: Mus musculus
Report only the number, with the unit % understood.

Known results for molecules:
Cc1nc(Oc2ccc(NC(=O)c3cccn(-c4ccc(F)cc4)c3=O)cc2F)c2c(-c3cccs3)coc2n1	-9.7
CSc1nc(Oc2ccc(NC(=O)c3cccn(-c4ccc(F)cc4)c3=O)cc2F)c2c(-c3ccccc3)coc2n1	14.9
O=C(Nc1ccc(Oc2ncnc3occ(-c4ccc(F)cc4)c23)c(F)c1)c1cccn(-c2ccc(F)cc2)c1=O	76.3
O=C(Nc1ccc(Oc2ncnc3scc(-c4ccccc4)c23)c(F)c1)c1cccn(-c2ccc(F)cc2)c1=O	94.6
O=C(Nc1ccc(Oc2ncnc3sccc23)c(F)c1)c1cccn(-c2ccc(F)cc2)c1=O	5.3

Entry O=C(Nc1ccc(Oc2ncnc3occ(-c4cccs4)c23)c(F)c1)c1cccn(-c2ccc(F)cc2)c1=O , system BaF3: what inhibition at 10 µM was measured?
-5.4

Entry COc1ccc(-c2csc3ncnc(Oc4ccc(NC(=O)c5cccn(-c6ccc(F)cc6)c5=O)cc4F)c23)cc1 , system BaF3: what inhibition at 10 µM was measured?
94.3

Entry Cc1ccc(-c2csc3ncnc(Oc4ccc(NC(=O)c5cccn(-c6ccc(F)cc6)c5=O)cc4F)c23)s1 , system BaF3: what inhibition at 10 µM was measured?
95

Entry O=C(Nc1ccc(Oc2ncnc3scc(-c4ccc(F)cc4)c23)c(F)c1)c1cccn(-c2ccc(F)cc2)c1=O , system BaF3: what inhibition at 10 µM was measured?
92.2

Entry O=C(Nc1ccc(Oc2ncnc3scc(-c4ccc(F)c(F)c4)c23)c(F)c1)c1cccn(-c2ccc(F)cc2)c1=O , system BaF3: what inhibition at 10 µM was measured?
89.7

Entry O=C(Nc1ccc(Oc2ncnc3occ(-c4ccccc4)c23)c(F)c1)c1cccn(-c2ccc(F)cc2)c1=O , system BaF3: what inhibition at 10 µM was measured?
93.7

====

TESTED_SYSTEM: UniProt P08581
# IC50 listing for each entry below

Known results for molecules:
O=C(Nc1ccc(Oc2ncnc3occ(-c4cccs4)c23)c(F)c1)c1cccn(-c2ccc(F)cc2)c1=O	> 10 µM
COc1ccc(-c2csc3ncnc(Oc4ccc(NC(=O)c5cccn(-c6ccc(F)cc6)c5=O)cc4F)c23)cc1OC	0.123 µM

Entry Cc1nc(Oc2ccc(NC(=O)c3cccn(-c4ccc(F)cc4)c3=O)cc2F)c2c(-c3cccs3)coc2n1 , system UniProt P08581: what IC50 was measured?
> 10 µM

====

TESTED_SYSTEM: Ephrin type-A receptor 2 (Homo sapiens)
Sequence (P29317 whole entry): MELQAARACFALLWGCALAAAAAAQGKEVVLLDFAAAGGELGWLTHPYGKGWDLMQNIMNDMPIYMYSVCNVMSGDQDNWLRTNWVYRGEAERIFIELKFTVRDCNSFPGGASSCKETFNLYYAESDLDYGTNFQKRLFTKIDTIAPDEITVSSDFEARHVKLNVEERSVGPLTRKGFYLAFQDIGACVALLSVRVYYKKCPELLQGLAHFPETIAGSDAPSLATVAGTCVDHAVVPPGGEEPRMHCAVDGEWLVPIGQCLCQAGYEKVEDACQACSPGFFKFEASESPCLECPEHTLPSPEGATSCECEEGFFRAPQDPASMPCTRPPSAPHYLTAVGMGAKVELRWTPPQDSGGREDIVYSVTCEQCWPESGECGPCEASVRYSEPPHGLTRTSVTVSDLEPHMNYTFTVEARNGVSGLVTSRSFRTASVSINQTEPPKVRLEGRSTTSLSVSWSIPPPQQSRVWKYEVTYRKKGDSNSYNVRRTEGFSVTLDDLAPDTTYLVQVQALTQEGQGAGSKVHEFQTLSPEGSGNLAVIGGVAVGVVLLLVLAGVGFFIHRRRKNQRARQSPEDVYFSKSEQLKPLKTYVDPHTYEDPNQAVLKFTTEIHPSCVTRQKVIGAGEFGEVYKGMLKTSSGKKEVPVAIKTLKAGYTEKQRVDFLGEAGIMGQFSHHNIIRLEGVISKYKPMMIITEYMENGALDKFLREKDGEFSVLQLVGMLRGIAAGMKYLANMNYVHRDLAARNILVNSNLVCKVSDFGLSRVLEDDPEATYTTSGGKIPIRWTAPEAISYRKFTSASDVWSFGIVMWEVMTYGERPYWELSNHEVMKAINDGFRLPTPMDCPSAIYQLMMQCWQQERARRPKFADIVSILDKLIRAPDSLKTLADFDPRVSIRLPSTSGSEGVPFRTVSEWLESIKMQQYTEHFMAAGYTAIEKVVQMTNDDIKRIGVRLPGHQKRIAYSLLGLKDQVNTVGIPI
pIC50: −log10 of the molar value.
OBSERVATION_TYPE: pIC50

Entry O=C(Nc1ccc(Oc2ncnc3scc(-c4ccccc4)c23)c(F)c1)c1cccn(-c2ccc(F)cc2)c1=O , system Ephrin type-A receptor 2 (Homo sapiens): what pIC50 was measured?
< 5.00

====

TESTED_SYSTEM: Tyrosine-protein kinase ABL1 (Homo sapiens, UniProt P00519)
Sequence (P00519 whole entry): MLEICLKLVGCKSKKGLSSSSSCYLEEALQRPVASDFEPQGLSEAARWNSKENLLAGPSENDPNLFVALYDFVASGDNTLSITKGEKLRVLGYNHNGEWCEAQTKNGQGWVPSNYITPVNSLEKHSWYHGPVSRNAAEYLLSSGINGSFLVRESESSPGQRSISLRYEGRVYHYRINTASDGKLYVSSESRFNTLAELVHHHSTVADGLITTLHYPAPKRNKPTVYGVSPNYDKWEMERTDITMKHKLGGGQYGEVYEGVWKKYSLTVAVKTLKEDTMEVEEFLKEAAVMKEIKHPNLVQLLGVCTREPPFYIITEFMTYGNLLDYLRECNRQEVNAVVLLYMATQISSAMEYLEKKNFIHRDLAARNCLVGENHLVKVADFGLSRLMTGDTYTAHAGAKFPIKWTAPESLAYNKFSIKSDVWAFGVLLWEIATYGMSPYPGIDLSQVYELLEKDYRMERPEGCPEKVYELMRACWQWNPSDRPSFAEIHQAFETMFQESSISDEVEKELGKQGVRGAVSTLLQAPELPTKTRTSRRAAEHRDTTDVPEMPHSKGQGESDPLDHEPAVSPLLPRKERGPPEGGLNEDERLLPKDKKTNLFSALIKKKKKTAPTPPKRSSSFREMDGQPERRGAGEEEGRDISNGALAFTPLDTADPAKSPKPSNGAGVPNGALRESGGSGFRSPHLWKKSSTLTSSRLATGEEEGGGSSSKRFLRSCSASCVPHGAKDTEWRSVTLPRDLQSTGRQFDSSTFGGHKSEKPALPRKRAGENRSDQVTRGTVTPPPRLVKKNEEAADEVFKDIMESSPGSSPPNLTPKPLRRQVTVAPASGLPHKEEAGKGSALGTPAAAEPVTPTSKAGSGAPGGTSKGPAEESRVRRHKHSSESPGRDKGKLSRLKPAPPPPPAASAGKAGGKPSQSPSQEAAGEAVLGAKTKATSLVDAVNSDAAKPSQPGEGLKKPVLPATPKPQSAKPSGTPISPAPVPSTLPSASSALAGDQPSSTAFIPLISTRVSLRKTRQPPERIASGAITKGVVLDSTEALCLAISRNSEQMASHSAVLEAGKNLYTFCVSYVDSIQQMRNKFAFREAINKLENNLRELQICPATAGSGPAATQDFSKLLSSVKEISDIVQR
OBSERVATION_TYPE: IC50

Entry O=C(Nc1ccc(Oc2ncnc3scc(-c4ccccc4)c23)c(F)c1)c1cccn(-c2ccc(F)cc2)c1=O , system Tyrosine-protein kinase ABL1 (Homo sapiens, UniProt P00519): what IC50 was measured?
> 10 µM

====

TESTED_SYSTEM: Hepatocyte growth factor receptor (Homo sapiens, UniProt P08581)
PROCEDURE_DETAILS: Inhibition of c-Met at 10 uM after 60 mins by ELISA
Class key for inhibition values: low class = under 30%, middle class = from 30% up to 80%, high class = 80% and over

CS(=O)(=O)c1nc(Oc2ccc(NC(=O)c3cccn(-c4ccc(F)cc4)c3=O)cc2F)c2c(-c3ccccc3)coc2n1	middle class
O=C(Nc1ccc(Oc2ncnc3occ(-c4ccccc4)c23)c(F)c1)c1cccn(-c2ccc(F)cc2)c1=O	high class
CSc1nc(Oc2ccc(NC(=O)c3cccn(-c4ccc(F)cc4)c3=O)cc2F)c2c(-c3ccccc3)coc2n1	middle class

Class (by measured inhibition) for [N-]=[N+]=Nc1nc(Oc2ccc(NC(=O)c3cccn(-c4ccc(F)cc4)c3=O)cc2F)c2c(-c3ccccc3)coc2n1
low class

====

TESTED_SYSTEM: UniProtKB P08581
PROCEDURE_DETAILS: Inhibition of c-Met at 10 uM after 60 mins by ELISA
# binarize inhibition: threshold 90% inclusive, high side Yes, low side No

Consider the following illustrative entries.
O=C(Nc1ccc(Oc2ncnc3scc(-c4ccc(-c5ccccc5)cc4)c23)c(F)c1)c1cccn(-c2ccc(F)cc2)c1=O	No
Cc1nc(Oc2ccc(NC(=O)c3cccn(-c4ccc(F)cc4)c3=O)cc2F)c2c3c(sc2n1)CCCC3	No
Cc1coc2ncnc(Oc3ccc(NC(=O)c4cccn(-c5ccc(F)cc5)c4=O)cc3F)c12	No
O=C(Nc1ccc(Oc2ncnc3occ(-c4ccc(F)cc4)c23)c(F)c1)c1cccn(-c2ccc(F)cc2)c1=O	No
O=C(Nc1ccc(Oc2ncnc3scc(-c4ccccc4)c23)c(F)c1)c1cccn(-c2ccc(F)cc2)c1=O	Yes

Threshold query (inhibition >= 90%) on O=C(Nc1ccc(Oc2ncnc3scc(-c4ccc(F)cc4)c23)c(F)c1)c1cccn(-c2ccc(F)cc2)c1=O
No

Threshold query (inhibition >= 90%) on COc1ccc(-c2csc3ncnc(Oc4ccc(NC(=O)c5cccn(-c6ccc(F)cc6)c5=O)cc4F)c23)cc1OC
Yes

Threshold query (inhibition >= 90%) on O=C(Nc1ccc(Oc2ncnc3sc(-c4ccccc4)cc23)c(F)c1)c1cccn(-c2ccc(F)cc2)c1=O
No

Threshold query (inhibition >= 90%) on Cc1ccc(-c2csc3ncnc(Oc4ccc(NC(=O)c5cccn(-c6ccc(F)cc6)c5=O)cc4F)c23)s1
No

Threshold query (inhibition >= 90%) on O=C(Nc1ccc(Oc2ncnc3sc4c(c23)CCCCC4)c(F)c1)c1cccn(-c2ccc(F)cc2)c1=O
No
